Read-out: Broad substrate specificity ATP-binding cassette transporter ABCG2 (Homo sapiens) (UniProt Q9UNQ0)
Sequence (Q9UNQ0 whole entry, looked up): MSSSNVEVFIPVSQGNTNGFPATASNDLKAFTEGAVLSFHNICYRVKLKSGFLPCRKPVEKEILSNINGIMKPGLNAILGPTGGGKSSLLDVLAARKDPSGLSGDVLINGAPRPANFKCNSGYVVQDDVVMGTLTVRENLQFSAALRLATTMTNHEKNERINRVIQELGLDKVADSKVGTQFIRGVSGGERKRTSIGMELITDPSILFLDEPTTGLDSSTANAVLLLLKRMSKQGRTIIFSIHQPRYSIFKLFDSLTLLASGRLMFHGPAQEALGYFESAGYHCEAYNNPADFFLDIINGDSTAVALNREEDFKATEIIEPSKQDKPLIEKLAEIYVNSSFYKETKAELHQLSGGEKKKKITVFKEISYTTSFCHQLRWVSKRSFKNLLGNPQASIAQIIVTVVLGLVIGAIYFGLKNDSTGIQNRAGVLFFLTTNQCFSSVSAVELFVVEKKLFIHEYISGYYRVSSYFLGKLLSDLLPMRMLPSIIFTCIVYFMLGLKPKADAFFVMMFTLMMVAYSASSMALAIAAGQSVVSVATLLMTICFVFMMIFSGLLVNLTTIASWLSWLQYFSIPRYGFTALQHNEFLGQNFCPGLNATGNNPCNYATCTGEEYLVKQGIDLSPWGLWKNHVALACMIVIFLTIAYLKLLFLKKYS
Experiment: LTEA_HepaRG_ABCG2: Life Technologies and Expression Analysis (LTEA) Assay for ABC Transporter (ABCG2) using HepaRG (AID 2283465)
Details: mRNA level, 48 h; actives raise or lower the signal
Calls of active or inactive are those of the source. Rule for the calls: active = hit-call score of the fitted dose curve at least 0.9, where 1 is the maximum; inactive = score below 0.9.
Experimental Readout: AC50

Observe how each entry below is paired with its result.
>  <Molecule>
CC(=O)C(C)=CC1C(C)=CCCC1(C)C (stereo unspecified)

>  <AC50>
inactive

$$$$
>  <Molecule>
COc1ccc(C)cc1N

>  <AC50>
inactive

$$$$
>  <Molecule>
NCCO

>  <AC50>
inactive

$$$$
>  <Molecule>
CC1=C(/C=C/C(C)=C/C=C/C(C)=C/CO)C(C)(C)CCC1

>  <AC50>
52.2 µM (active)

$$$$
>  <Molecule>
C1CCC(SSC2CCCCC2)CC1

>  <AC50>
inactive

$$$$

Task: Form field: reported AC50 of CCc1c(C(=O)NN2CCCCC2)nn(-c2ccc(Cl)cc2Cl)c1-c1ccc(Br)cc1
Output: 50 µM (active)

Task: And Cc1oc(-c2ccccc2)nc1CCOc1cccc2c1ccn2CCC(=O)O ?
Output: 40.2 µM (active)

Task: Okay, and OC[C@@H](O)[C@@H](O)[C@H](O)[C@H](O)CO ?
Output: inactive

Task: Same question for Cc1cccc(C)c1O please.
Output: inactive

Task: How about CCOC(=O)CCC(=O)OCC ?
Output: inactive

----------
Test: APR_HepG2_MitoticArrest_24hr: Apredica 24-hour HepG2 Assay for Mitotic Arrest (AID 2282910)
Settings: high-content imaging, actives raise or lower the signal
The source made the active and inactive calls. How the source made its calls: active means hit-call score of the fitted dose curve at least 0.9, where 1 is the maximum; inactive means score below 0.9.

>  <Compound>
c1cc(-c2ccncc2)ccn1

>  <AC50>
inactive

$$$$
>  <Compound>
Cc1cc(=O)[nH]c(=S)[nH]1

>  <AC50>
inactive

$$$$
>  <Compound>
CN1CCN(Cc2cc(-c3ccc4[nH]c(=O)oc4c3)co2)[C@@H](c2ccc(F)cc2)C1

>  <AC50>
42.1 µM (active)

$$$$
>  <Compound>
CCCCC(CC)COC(=O)CC(C(=O)OCC(CC)CCCC)S(=O)(=O)O (centres undefined)

>  <AC50>
105 µM (active)

$$$$

----------
Test: Tanguay_ZF_120hpf_ActivityScore_legacy: (Legacy) Oregon State University Tanguay Lab 120 Hour Post-fertilization zebrafish Assay Score for Activity (AID 2283742)
Calls of active or inactive are those of the source. The calls were made as follows: active = hit-call score of the fitted dose curve at least 0.9, where 1 is the maximum; inconclusive = response in the unintended direction; inactive = score below 0.9.
Lab note: assign the record to one of yes (1) (active), no (0) (inactive)

Examples from the recorded data:
>  <Compound>
CCCc1cc(=O)[nH]c(=S)[nH]1

>  <Label>
no (0)

$$$$
>  <Compound>
CN1CCN(Cc2cc(-c3ccc4[nH]c(=O)oc4c3)co2)[C@@H](c2ccc(F)cc2)C1

>  <Label>
no (0)

$$$$
>  <Compound>
Cc1ccc2ncccc2c1

>  <Label>
no (0)

$$$$
>  <Compound>
CCc1c(C(=O)NN2CCCCC2)nn(-c2ccc(Cl)cc2Cl)c1-c1ccc(Br)cc1

>  <Label>
yes (1)

$$$$
>  <Compound>
CC(=O)C(C)=CC1C(C)=CCCC1(C)C (stereo not drawn)

>  <Label>
no (0)

$$$$

Task: Would you mind telling me which call this test gave Cc1cccc(Nc2cc(Cl)nc(SCC(=O)O)n2)c1C ?
Output: no (0)

Task: Also COCCOC[C@H](CC1(C(=O)NC2CCC(C(=O)O)CC2)CCCC1)C(=O)Oc1ccc2c(c1)CCC2 (stereo partly drawn) ?
Output: no (0)

Task: Do the same for Cc1nc(-c2ccc3c(c2)CCN(CCC2CCC(NC(=O)/C=C/c4ccc(F)cc4)CC2)CC3)no1 (stereo not drawn) please
Output: no (0)

Task: Lookup CN1CCCC1=O
Output: no (0)

Task: Try this compound too: Clc1cc(Cl)c(Cl)cc1Cl
Output: no (0)

----------
Read-out: Insulin-like growth factor-binding protein 1 (IGFBP1), IGFBP1 (gene 3484)
Experiment: LTEA_HepaRG_IGFBP1: Life Technologies and Expression Analysis (LTEA) Assay for Insulin-like growth factor-binding protein 1 (IGFBP1) using HepaRG (AID 2283508)
Settings: mRNA level, 48 h; actives raise or lower the signal
The source made the active and inactive calls. Rule for the calls: active = hit-call score of the fitted dose curve at least 0.9, where 1 is the maximum; inactive = score below 0.9.
Mark one answer only. Choices: active, inactive

Past entries and their recorded results:
>  <Chemical Smiles>
CCCCOC(=O)CCCCCCCCC(=O)OCCCC

>  <Label>
inactive

$$$$
>  <Chemical Smiles>
C1CCC(SSC2CCCCC2)CC1

>  <Label>
inactive

$$$$
>  <Chemical Smiles>
COC(=O)c1ccc(O)cc1

>  <Label>
inactive

$$$$
>  <Chemical Smiles>
CC(=O)OCCOCCOCCOC(C)=O

>  <Label>
inactive

$$$$

Task: Please indicate how the test categorized CNCc1cc(F)ccc1Oc1ccc(Cl)c(Cl)c1 .
Output: active

Task: Further, for OC[C@@H](O)[C@@H](O)[C@H](O)[C@H](O)CO ?
Output: inactive

Task: Same thing, different molecule: CC(=O)Oc1ccccc1C(=O)O
Output: inactive

----------
Biological target: Androgen Receptor/SRC-1 Co-activator, AR (gene 367)
Assay: OT_AR_ARSRC1_0960: Odyssey Thera (OT) 16-hour HEK293T Protein-Complementation Assay for Androgen Receptor/SRC-1 Co-activator (AID 2283353);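 note: actives raise the signal above DMSO so potency reflects increased AR and SRC-1 complex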
Calls of active or inactive are those of the source. How the source made its calls: active means hit-call score of the fitted dose curve at least 0.9, where 1 is the maximum; inconclusive means response in the unintended direction; inactive means score below 0.9.
Experimental Readout: AC50

Solved cases (5 shown):
>  <Chemical Smiles>
CN[C@H]1CC[C@@H](c2ccc(Cl)c(Cl)c2)c2ccc(S(N)(=O)=O)cc21

>  <AC50>
17.4 µM (active)

$$$$
>  <Chemical Smiles>
Cc1ccccc1Cl

>  <AC50>
inactive

$$$$
>  <Chemical Smiles>
CCCCCC(=O)O

>  <AC50>
inactive

$$$$
>  <Chemical Smiles>
COc1cc(C=O)ccc1O

>  <AC50>
inactive

$$$$
>  <Chemical Smiles>
COc1cc(-c2nc(NC(=O)c3cc4cc(C)cc(C)c4n3CC(=O)O)sc2CCC2CCCCC2)c(OC)cc1Cl

>  <AC50>
10.5 µM (active)

$$$$

// switching to the query molecule
Task: Value lookup for AC50; key = COc1ccc2c(c1)c(CC(=O)O)c(C)n2C(=O)c1ccc(Cl)cc1
Output: inactive

----------
Read-out: Interleukin 6 Receptor (IL6R), IL6R (gene 3570)
Assay: LTEA_HepaRG_IL6R: Life Technologies and Expression Analysis (LTEA) Assay for Interleukin 6 Receptor (IL6R) using HepaRG (AID 2283510)
Conditions: mRNA level, 48 h; actives raise or lower the signal
Active and inactive are the calls of the source. How the source made its calls: active means hit-call score of the fitted dose curve at least 0.9, where 1 is the maximum; inactive means score below 0.9.
Parameter call: string, one of active, inactive

Example entries begin here.
>  <Compound>
CC1(C)NC(=O)NC1=O

>  <Label>
inactive

$$$$
>  <Compound>
CCCCC(CC)COC(=O)CC(C(=O)OCC(CC)CCCC)S(=O)(=O)O (stereo not drawn)

>  <Label>
inactive

$$$$
>  <Compound>
O=C(N[C@@H](Cc1ccccc1)[C@@H](O)C(=O)N1C[C@@H](O)[C@@H](O)C1)c1cc2cc(Cl)ccc2[nH]1

>  <Label>
inactive

$$$$

Task: Kindly provide the recorded test outcome for the following compound: c1cc(-c2ccncc2)ccn1
Output: inactive

Task: Next compound: CCCCCCCCCCCCCCCC
Output: inactive

----------
Read-out: Plasminogen activator inhibitor-1 (PAI1), SERPINE1 (gene 5054)
Experiment: BSK_hDFCGF_PAI1: BioMAP Diversity Plus: hDFCGF Assay for Plasminogen activator inhibitor-1 (PAI1) Biomarker Activity (AID 2283066)
Conditions: primary human foreskin fibroblasts; actives raise or lower the signal
Activity calls are given as the source filed them. Rule for the calls: active = hit-call score of the fitted dose curve at least 0.9, where 1 is the maximum; inactive = score below 0.9.
Field 'call' accepts active, inactive

Here are 5 molecules together with their reported answers.
>  <Chemical Smiles>
CCCCCCCCCCCCCCCC

>  <Label>
inactive

$$$$
>  <Chemical Smiles>
Oc1ccc2ccccc2c1N=Nc1ccccc1

>  <Label>
active

$$$$
>  <Chemical Smiles>
Nc1ccc2c(c1)C(=O)c1ccccc1C2=O

>  <Label>
inactive

$$$$
>  <Chemical Smiles>
CC1=C(/C=C/C(C)=C/C=C/C(C)=C/CO)C(C)(C)CCC1

>  <Label>
active

$$$$
>  <Chemical Smiles>
CCCCCCCCCCC

>  <Label>
inactive

$$$$

Task: How did this test come out for C1CCC(SSC2CCCCC2)CC1 ?
Output: active

Task: Also need FC(F)(F)C(F)(F)C(F)(F)C(F)(F)C(F)(F)C(F)(F)CCI , thanks.
Output: inactive

----------
Assay: CCTE_Shafer_MEA_acute_spike_number: CCTE's Neural Acute Assay for Total Number of Spikes, Shafer Lab (AID 2284008)
Active and inactive are the calls of the source. How the source made its calls: active means hit-call score of the fitted dose curve at least 0.9, where 1 is the maximum; inactive means score below 0.9.

>  <Chemical Smiles>
C=CCOC(=O)c1ccccc1C(=O)OCC=C

>  <outcome>
inactive

$$$$
>  <Chemical Smiles>
NS(=O)(=O)c1cc2c(cc1Cl)NCNS2(=O)=O

>  <outcome>
inactive

$$$$
>  <Chemical Smiles>
CCCCCCCCCCO

>  <outcome>
inactive

$$$$

Origin of values: PubChem BioAssay (EPA / NIEHS)
